Recorded values, source ChEMBL document CHEMBL5316304.

- procedureSummary: Half life in Balb/C mouse at 1 mg/kg, iv by LC/MS/MS analysis
- Assay type: ADME, organism-based
- details: in vivo
measurementName: half-life (h)
Quick reminder: number only, in h, skip the unit.

Q: Entry under review: CC(C)(Nc1nc(-c2ccccn2)nc2ccccc12)c1ccccn1 . Reported half-life?
Ans: 1.13

###

- procedureSummary: Half life in Balb/C mouse plasma at 12.5 mg/kg, po in presence of ABT by LC/MS/MS analysis
- Type: ADME, organism-based
measurementName: half-life (h)
# unit: h | format: bare number

Q: Value lookup for half-life; key = c1ccc(-c2nc(N3CCC(c4ccccn4)C3)c3ccccc3n2)nc1 (racemic)
Ans: 3.3
